# procedureDetails: Solubility and color of mixtures
# Format: physicochemical
# conditionDescription: thermodynamic from solid; 10 mg in 1 mL water; ultrasonic 5 min, 70 degrees 10 min, cooled 30 min at room temperature; absorbance at 330 nm

compound: O=C(O)c1cc(C(=O)O)c2c(n1)C(=O)C(=O)c1cc(C(=O)O)[nH]c1-2.[Na] [Example 1, Pyrroloquinoline Quinone Monosodium]
solubility at 30 min: 4.5 mM
